Where these numbers come from: patent US20150307520A1

Entries and their measured PI3Kβ IH % @ 1 uM follow.
target: p110β/p85α (Homo sapiens, UniProt P42338); experiment: Transcreener KINASE Assay, kinase inhibition of p110β/p85α; assay type: biochemical; conditions: 1 uM test compound
Sequence (P42338 whole entry, one chain of several): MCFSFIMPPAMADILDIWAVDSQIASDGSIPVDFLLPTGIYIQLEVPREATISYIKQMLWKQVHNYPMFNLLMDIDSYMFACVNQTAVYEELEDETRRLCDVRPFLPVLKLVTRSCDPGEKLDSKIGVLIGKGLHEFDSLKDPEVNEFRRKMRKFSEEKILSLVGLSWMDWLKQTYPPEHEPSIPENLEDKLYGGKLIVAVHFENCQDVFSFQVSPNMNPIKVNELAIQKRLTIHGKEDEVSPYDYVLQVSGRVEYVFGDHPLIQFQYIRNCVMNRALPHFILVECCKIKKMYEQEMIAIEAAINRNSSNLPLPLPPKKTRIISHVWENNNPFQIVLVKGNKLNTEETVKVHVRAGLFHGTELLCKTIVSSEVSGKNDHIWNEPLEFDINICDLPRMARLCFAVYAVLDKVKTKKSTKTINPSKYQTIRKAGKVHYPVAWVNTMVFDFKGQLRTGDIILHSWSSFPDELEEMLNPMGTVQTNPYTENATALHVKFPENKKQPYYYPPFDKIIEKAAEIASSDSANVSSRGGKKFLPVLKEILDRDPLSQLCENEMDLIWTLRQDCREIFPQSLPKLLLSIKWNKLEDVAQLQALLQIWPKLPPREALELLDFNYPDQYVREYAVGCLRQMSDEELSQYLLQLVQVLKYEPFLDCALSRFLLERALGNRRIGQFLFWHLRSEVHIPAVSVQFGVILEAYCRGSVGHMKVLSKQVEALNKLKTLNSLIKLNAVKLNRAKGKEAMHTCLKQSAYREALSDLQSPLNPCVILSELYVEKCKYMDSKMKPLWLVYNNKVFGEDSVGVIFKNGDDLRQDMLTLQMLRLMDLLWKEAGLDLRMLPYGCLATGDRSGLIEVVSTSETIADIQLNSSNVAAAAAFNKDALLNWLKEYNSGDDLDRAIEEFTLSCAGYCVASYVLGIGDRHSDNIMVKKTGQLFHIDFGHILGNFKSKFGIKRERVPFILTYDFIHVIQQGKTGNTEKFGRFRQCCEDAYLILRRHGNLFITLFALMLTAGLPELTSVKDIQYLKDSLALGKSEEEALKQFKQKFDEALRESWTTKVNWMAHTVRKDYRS
Number in %, nothing else.

Example cases with answers are listed next.
COMPOUND | PI3Kβ IH % @ 1 uM [%]
CC(=O)c1cnc(N)nc1N1CC[C@H]1c1nn2ccc(Cl)c2c(=O)n1-c1cccc(F)c1 | 20.3
CC(=O)c1c(C)nc(N)nc1N1CC[C@H]1c1nn2ccc(Cl)c2c(=O)n1-c1ccccc1 | 22.6
CC1(C)CN(c2nc(N)ncc2C#N)C1c1nn2ccc(Cl)c2c(=O)n1-c1ccccc1 (stereo not drawn) | 47.1
Cc1nc(N)nc(N2C[C@H](C)[C@H]2c2nn3ccc(Cl)c3c(=O)n2-c2ccccc2)n1 | 47.1

Please give the documented PI3Kβ IH % @ 1 uM of CC1(C)CN(c2nc(N)ncc2Cl)C1c1nn2ccc(Cl)c2c(=O)n1-c1ccccc1 (stereo not drawn)
45.4

====

Entries and their measured PI3Kγ IH % @ 1 uM follow.
target: p110γ (Homo sapiens); assay: Transcreener KINASE Assay, kinase inhibition of p110γ; type: biochemical; conditions: 1 uM test compound

Example cases with answers are listed next.
MOLECULE | PI3Kγ IH % @ 1 uM
N#Cc1c[nH]c2ncnc(N3CCC[C@H]3c3nn4ccc(Cl)c4c(=O)n3Cc3ccccc3)c12 [Compound 62] | >100%
N#Cc1cnc(N)nc1N1CCC[C@H]1c1nn2ccc(Cl)c2c(=O)n1-c1cccc(F)c1 [Compound 232] | >100%
C[S+]([O-])c1c[nH]c2ncnc(N3CCC[C@H]3c3nn4ccc(Cl)c4c(=O)n3-c3cccc(F)c3)c12 (single isomer, unassigned) [Compound 387] | >100%

Please give the documented PI3Kγ IH % @ 1 uM of N#Cc1c[nH]c2ncnc(N3CC[C@H]3c3nn4ccc(Cl)c4c(=O)n3CC3CC3)c12 [Compound 371]
74.4%

Please give the documented PI3Kγ IH % @ 1 uM of C[S+]([O-])c1c[nH]c2ncnc(N3CCC[C@H]3c3nn4ccc(Cl)c4c(=O)n3-c3ccccn3)c12 (single isomer, unassigned) [Compound 389]
87.9%

====

target: p110δ/p85α (Homo sapiens, UniProt O00329); test: Transcreener KINASE Assay, kinase inhibition of p110δ/p85α; conditions: read-out: PI3Kδ IC50
Sequence (O00329 whole entry): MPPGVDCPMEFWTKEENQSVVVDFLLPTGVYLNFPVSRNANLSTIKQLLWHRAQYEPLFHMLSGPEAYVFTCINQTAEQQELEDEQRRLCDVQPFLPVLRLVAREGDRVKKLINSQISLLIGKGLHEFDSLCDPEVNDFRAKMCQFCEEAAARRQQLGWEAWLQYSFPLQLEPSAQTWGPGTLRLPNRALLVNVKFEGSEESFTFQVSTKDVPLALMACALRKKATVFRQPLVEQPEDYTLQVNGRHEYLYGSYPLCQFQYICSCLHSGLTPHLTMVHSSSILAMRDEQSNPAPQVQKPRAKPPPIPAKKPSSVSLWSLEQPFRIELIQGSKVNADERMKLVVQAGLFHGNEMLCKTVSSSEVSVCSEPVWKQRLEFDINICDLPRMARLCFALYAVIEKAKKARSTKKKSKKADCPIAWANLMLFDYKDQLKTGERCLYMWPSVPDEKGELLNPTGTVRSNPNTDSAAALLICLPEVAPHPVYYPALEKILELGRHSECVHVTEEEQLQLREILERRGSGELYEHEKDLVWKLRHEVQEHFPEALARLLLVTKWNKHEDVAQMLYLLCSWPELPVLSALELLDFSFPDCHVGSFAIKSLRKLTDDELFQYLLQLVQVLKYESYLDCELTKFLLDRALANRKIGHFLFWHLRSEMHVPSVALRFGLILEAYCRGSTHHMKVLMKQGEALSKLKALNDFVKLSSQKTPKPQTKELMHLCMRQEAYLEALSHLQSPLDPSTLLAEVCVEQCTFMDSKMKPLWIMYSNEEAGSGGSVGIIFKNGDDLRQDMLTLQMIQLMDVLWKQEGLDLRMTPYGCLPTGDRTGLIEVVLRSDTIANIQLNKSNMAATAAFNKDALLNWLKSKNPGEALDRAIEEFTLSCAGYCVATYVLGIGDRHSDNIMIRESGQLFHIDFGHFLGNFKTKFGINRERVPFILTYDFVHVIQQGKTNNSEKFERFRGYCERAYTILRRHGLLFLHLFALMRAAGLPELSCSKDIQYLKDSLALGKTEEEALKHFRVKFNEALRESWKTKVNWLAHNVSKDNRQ
Sequence (P27986 whole entry partner): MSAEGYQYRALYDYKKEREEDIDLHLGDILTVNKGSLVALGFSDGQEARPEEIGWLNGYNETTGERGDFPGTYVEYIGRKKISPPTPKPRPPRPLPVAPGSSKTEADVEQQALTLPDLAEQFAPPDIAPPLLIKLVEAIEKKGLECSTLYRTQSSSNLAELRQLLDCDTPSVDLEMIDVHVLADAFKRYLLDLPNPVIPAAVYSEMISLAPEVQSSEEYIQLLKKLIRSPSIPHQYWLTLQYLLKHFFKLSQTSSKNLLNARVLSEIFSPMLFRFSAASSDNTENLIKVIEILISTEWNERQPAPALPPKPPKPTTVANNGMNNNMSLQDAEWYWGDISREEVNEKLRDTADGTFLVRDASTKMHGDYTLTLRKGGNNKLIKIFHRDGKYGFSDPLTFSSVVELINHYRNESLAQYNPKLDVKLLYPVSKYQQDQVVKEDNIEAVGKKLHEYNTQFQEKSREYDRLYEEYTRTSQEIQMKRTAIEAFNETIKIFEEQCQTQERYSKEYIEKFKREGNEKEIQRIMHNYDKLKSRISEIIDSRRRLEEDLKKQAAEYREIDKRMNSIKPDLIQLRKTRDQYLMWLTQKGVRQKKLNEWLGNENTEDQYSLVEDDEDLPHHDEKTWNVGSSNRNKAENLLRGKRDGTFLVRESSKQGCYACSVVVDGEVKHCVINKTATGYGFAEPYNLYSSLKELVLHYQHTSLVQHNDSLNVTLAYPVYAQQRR
pIC50: −log10 of the molar value.
pIC50 of 7 or higher: criterion met. Under 7: criterion not met.

Use these answered entries as a reference point.
COMPOUND | TARGET SYSTEM | ASSIGNED CATEGORY
N#Cc1cnc(N)nc1N1CC(=O)C[C@H]1c1nn2ccc(Cl)c2c(=O)n1-c1ccccc1 | p110δ/p85α (Homo sapiens, UniProt O00329) | criterion met
O=c1c2c(Cl)ccn2nc([C@@H]2CCN2c2ncnc3[nH]ccc23)n1-c1ccccc1 | p110δ/p85α (Homo sapiens, UniProt O00329) | criterion not met
CC(=O)c1cnc(N)nc1NC(C)c1cc2ncc(Cl)n2c(=O)n1-c1ccccc1 (stereo not drawn) | p110δ/p85α (Homo sapiens, UniProt O00329) | criterion met
N#C[C@H]1C[C@@H](c2nn3ccc(Cl)c3c(=O)n2-c2ccc(F)cc2)N(c2ncnc3[nH]cnc23)C1 | p110δ/p85α (Homo sapiens, UniProt O00329) | criterion met
Nc1nc2c(c(N3CCC[C@H]3c3nn4ccc(Br)c4c(=O)n3-c3ccccc3)n1)CCC2 | p110δ/p85α (Homo sapiens, UniProt O00329) | criterion not met
N#Cc1cnc(N)nc1N1C[C@@H](F)C[C@H]1c1nn2ccc(Cl)c2c(=O)n1-c1ccccc1 | p110δ/p85α (Homo sapiens, UniProt O00329) | criterion met
N#Cc1c(N)ncnc1N1CCC[C@H]1c1nn2ccc(Cl)c2c(=O)n1-c1ccccc1 | p110δ/p85α (Homo sapiens, UniProt O00329) | criterion met

# ---- query compound ----
Determine whether this compound has pIC50 no lower than 7: O=c1c2c(Cl)ccn2nc([C@@H]2CSCN2c2ncnc3[nH]cnc23)n1-c1ccccc1
criterion met

====

molecular target: p110β/p85α (Homo sapiens); experiment: Transcreener KINASE Assay, kinase inhibition of p110β/p85α; conditions: read-out: PI3Kβ IC50
METRIC NAME: log10(IC50) (log10 of the value in nM)
Reminder: these figures are log10 of reported IC50, in nM before transformation.

Example cases with answers are listed next.
COMPOUND | log10(IC50)
CC(=O)c1cnc(N)nc1N1C[C@H](C)[C@H]1c1nn2ccc(C#N)c2c(=O)n1-c1ccccc1 | 2.83
O=c1c2c(Cl)ccn2nc([C@@H]2C[C@H](OCCO)CN2c2ncnc3[nH]cnc23)n1-c1ccccc1 | 2.48
O=c1c2c(Cl)ccn2nc([C@@H]2C[C@H](F)CN2c2ncnc3[nH]cnc23)n1-c1ccccc1 | 2.62
N#Cc1c[nH]c2ncnc(N3C[C@@H](O)C[C@H]3c3nn4ccc(Cl)c4c(=O)n3-c3cccc(F)c3)c12 | 1.49
N#Cc1c(N)nc(N)nc1N1CCC1c1nn2ccc(Cl)c2c(=O)n1-c1ccccc1 (centres unmarked) | 2.42

Now let's try a different one.
Please give the documented log10(IC50) of Cn1c([C@@H]2CCCN2c2ncnc3[nH]cc(C#N)c23)nn2ccc(Cl)c2c1=O
1.79

====

Entries and their measured PI3Kγ IH % @ 1 uM follow.
molecular target: p110γ (Homo sapiens, UniProt P48736); experiment: Transcreener KINASE Assay, kinase inhibition of p110γ; format: biochemical; conditions: 1 uM test compound
Sequence (P48736 whole entry): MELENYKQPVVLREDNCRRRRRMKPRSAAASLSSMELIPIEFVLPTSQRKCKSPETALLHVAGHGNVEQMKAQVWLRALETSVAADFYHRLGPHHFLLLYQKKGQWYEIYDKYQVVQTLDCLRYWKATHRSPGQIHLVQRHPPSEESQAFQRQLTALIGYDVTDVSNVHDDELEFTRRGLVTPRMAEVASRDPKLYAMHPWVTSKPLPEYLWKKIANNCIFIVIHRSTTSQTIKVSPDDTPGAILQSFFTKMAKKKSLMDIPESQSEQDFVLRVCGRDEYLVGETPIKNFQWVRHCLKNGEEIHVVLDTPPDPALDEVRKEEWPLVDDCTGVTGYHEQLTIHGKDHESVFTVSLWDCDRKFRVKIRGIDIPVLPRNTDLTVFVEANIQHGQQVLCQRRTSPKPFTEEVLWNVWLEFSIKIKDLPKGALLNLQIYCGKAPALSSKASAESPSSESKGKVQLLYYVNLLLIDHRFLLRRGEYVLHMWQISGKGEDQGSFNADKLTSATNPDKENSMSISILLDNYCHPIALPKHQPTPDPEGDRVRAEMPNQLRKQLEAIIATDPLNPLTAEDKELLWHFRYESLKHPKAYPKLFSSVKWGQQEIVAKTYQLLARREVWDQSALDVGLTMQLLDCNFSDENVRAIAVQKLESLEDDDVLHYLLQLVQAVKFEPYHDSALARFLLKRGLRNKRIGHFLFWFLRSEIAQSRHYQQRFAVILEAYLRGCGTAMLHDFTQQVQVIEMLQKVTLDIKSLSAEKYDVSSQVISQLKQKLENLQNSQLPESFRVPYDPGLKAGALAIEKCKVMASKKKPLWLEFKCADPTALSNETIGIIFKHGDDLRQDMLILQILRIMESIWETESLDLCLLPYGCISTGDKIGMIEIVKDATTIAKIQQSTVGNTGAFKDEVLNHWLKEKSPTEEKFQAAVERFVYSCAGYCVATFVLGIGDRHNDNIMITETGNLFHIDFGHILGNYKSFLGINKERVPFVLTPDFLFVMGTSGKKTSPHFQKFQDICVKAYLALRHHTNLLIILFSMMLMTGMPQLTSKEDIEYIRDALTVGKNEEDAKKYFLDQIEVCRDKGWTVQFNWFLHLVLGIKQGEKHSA
Number in %, nothing else.

Example cases with answers are listed next.
RECORD SMILES | TEST RESULT
CC(=O)c1cnc(N)nc1N1CC[C@H]1c1nn2ccc(Cl)c2c(=O)n1-c1cccc(C)n1 | 94.7
N#Cc1c[nH]c2ncnc(N3C[C@@H](F)C[C@H]3c3nn4ccc(Cl)c4c(=O)n3-c3ccccn3)c12 | 97.1
N#C[C@H]1C[C@@H](c2nn3ccc(Cl)c3c(=O)n2-c2cccc(F)c2)N(c2ncnc3[nH]cnc23)C1 | 91.8

Now let's try a different one.
Please give the documented PI3Kγ IH % @ 1 uM of CC(=O)c1cnc(N)nc1N1CC[C@H]1c1nn2ccc(Cl)c2c(=O)n1-c1ccc(F)cc1
98.6

====

target: p110γ (Homo sapiens, UniProt P48736); test: Transcreener KINASE Assay, kinase inhibition of p110γ; format: biochemical; settings: 1 uM test compound
Entries and their measured PI3Kγ IH % @ 1 uM follow.
Number in %, nothing else.

Example cases with answers are listed next.
COMPOUND | U | PI3Kγ IH % @ 1 uM
N#Cc1cnc(N)nc1N1C[C@@H](C#N)C[C@H]1c1nn2ccc(Cl)c2c(=O)n1-c1ccccc1 [Compound 351] | % | 95.5
C[C@H](Nc1nc(N)ncc1C#N)c1cc2ncc(Cl)n2c(=O)n1-c1ccccc1 (single isomer, unassigned) [Compound 385] | % | 95.9
COc1ccc(-c2c(N)ncnc2N2CC[C@H]2c2nn3ccc(Cl)c3c(=O)n2-c2ccccc2)cn1 [Compound 108] | % | 90.0
N#Cc1c[nH]c2ncnc(N3CCC[C@H]3c3nn4ccc(C(N)=O)c4c(=O)n3-c3ccccc3)c12 [Compound 140] | % | 82.3

Please give the documented PI3Kγ IH % @ 1 uM of C[C@H]1CN(c2ncnc3[nH]cc(C#N)c23)C1c1nn2ccc(Cl)c2c(=O)n1-c1ccccc1 (stereo partly shown) [Compound 235]
96.2

Please give the documented PI3Kγ IH % @ 1 uM of CC(=O)c1c(N)ncnc1N1CC[C@H]1c1nn2ccc(Cl)c2c(=O)n1-c1ccccc1 [Compound 300]
82.7

Please give the documented PI3Kγ IH % @ 1 uM of CC(=O)c1c[nH]c2ncnc(N3CC[C@H]3c3nn4ccc(Cl)c4c(=O)n3-c3ccccc3)c12 [Compound 185]
99.0

Please give the documented PI3Kγ IH % @ 1 uM of C[S@@+]([O-])c1c[nH]c2ncnc(N3CCC[C@H]3c3nn4ccc(F)c4c(=O)n3-c3ccccc3)c12 [Compound 397]
96.5

Please give the documented PI3Kγ IH % @ 1 uM of N#Cc1c(N)ncnc1N1CC[C@H]1c1nn2ccc(Cl)c2c(=O)n1-c1ccccc1 [Compound 31]
81.5

====

molecular target: p110δ/p85α (Homo sapiens, UniProt O00329); assay: Transcreener KINASE Assay, kinase inhibition of p110δ/p85α; conditions: read-out: PI3Kδ IC50
METRIC NAME: pIC50
Reminder that pIC50 means the negative base-10 logarithm of the concentration expressed in mol/L.

COMPOUND | pIC50
CC(=O)c1c(N)ncnc1NC(C)c1cn2ccc(Cl)c2c(=O)n1-c1ccccc1 (stereo not drawn) | 8.52
N#Cc1c[nH]c2ncnc(N3CCC[C@H]3c3nn4ccc(Cl)c4c(=O)n3CC3CC3)c12 | 8.70

Please give the documented pIC50 of CN(C)CCn1c([C@@H]2CCCN2c2ncnc3[nH]cc(C#N)c23)nn2ccc(Cl)c2c1=O
8.15
